- Tested on: K4 kissing-loop RNA reporter
- test protocol: apparent KD of K4 kissing-loop reporter; higher = weaker reporter binding
- protocol conditions: Eterna round: R107; input ligand: theophylline 20 uM

residue string: CGGUACGUCGCAGGAUAUGUAAAUGUAAGUGAUGUUUACAUACCAUGCUGGCGAAAGCCAGCAUGGACAGAAGGGCGACGUACCG
uom: nM
apparent KD of K4 kissing-loop reporter: 328
//
residue string: GGUGCCGGGCAAGGAUAUUAGUCGAGUGAUGUUCGGCGGUCCAAGUCGUUGCGGCGUUAAACCCUUUGAGAAGGUGCCCGGUGCC [#2 Exclusion - FMN B Attempt #1 (HarryS)]
uom: nM
apparent KD of K4 kissing-loop reporter: 195
//
residue string: CCAAGGUGCUUCUGUUCAGUGAUGUUGGUACGAGGACCGGUACGGCCGCCACUCGCCGUACAAUCGCUAGUUAAUCAUUGGCAAG [theeternabot_exclusion_KL_Trp_A_40]
uom: nM
apparent KD of K4 kissing-loop reporter: 441
//
residue string: CUGCCGUUUACAGAUACCAGACUAAUAACGGCAGCACAGAAUGUGAGUGAUGUUCGCAUAGUCCCUUGGCAGCUGUAUAACAGUA [Theo B Ex t3]
uom: nM
apparent KD of K4 kissing-loop reporter: 287
//
residue string: CGCAGUGAUGUUGCUAUUAUUCUUGGUUAACGAGGACCGGUACGGCCGCCACUCGAUUUCUAUCUAAUCCAGUGUUUUUUUGAGU [JR_ExcTryptoA_Sub003]
uom: nM
apparent KD of K4 kissing-loop reporter: 458
//
residue string: CGCAGUGAUGUUGCUAUUAUUCUUGGUUAACGAGGACCGGUACGGCCGCCACUCGAUGUCUGUCUAGUCCAGUGUUUUUUUGAGU [whbob_EX_Tryp_A_t8]
uom: nM
apparent KD of K4 kissing-loop reporter: 579

###

This listing pairs sequences with measured apparent KD of K4 kissing-loop reporter.
- System: K4 kissing-loop RNA reporter
- test protocol: apparent KD of K4 kissing-loop reporter; higher = weaker reporter binding
- protocol conditions: Eterna round: R107; input ligand: tryptophan 2.4 mM

residue string: UAAGAAUAAGUAGCAGUGAUGUUGCUACUACGAGGACCGGUACGGCCGCCACUCGAAUACGAGUGGAAGUAGCAACUACCACUCA [(H1)-(H2)-(Trp1)-(Trp2)-(T)'-(H)'-(T)''_Design7]
measured target: K4 kissing-loop RNA reporter
apparent KD of K4 kissing-loop reporter (nM): 135
--
residue string: CGGUACGUCGCAGGAUAUGUAAAUGUAAGUGAUGUUUACAUACCAUGCUGGCGAAAGCCAGCAUGGACAGAAGGGCGACGUACCG
measured target: K4 kissing-loop RNA reporter
apparent KD of K4 kissing-loop reporter (nM): 506
--
residue string: UUCUUGAUGGAAACAUCGAGGAUUACUGAUACCAGUAUCGAUAGAUACCCUUGGCAGCAGAAUCAGUAAUCACGAGUGAUGUUCG [Ex Theophylline A K4 6]
measured target: K4 kissing-loop RNA reporter
apparent KD of K4 kissing-loop reporter (nM): 460
--
residue string: CUUUUACAGUCGGCCGCCACUGACAGCACUUCAAAGACAGUAUAAGGGUAGUGAUGUUACUUUAUCAGGACCGGGACUACCUAAC [theeternabot_sameState_KL_Trp_B_3]
measured target: K4 kissing-loop RNA reporter
apparent KD of K4 kissing-loop reporter (nM): 358
--
residue string: GGUGUUGUUUGUGCUGUUUUCUUUGUUUCUCGAGGACCGGUACGGCCGCCACUCGAGUGAUGUUUGGGUAGCGAUGUUUGUUAGU [Bdazzled - #2 - Exc. Tryptophan A]
measured target: K4 kissing-loop RNA reporter
apparent KD of K4 kissing-loop reporter (nM): 411
--
residue string: GGUGCCGGGCAAGGAUAUUAGUCGAGUGAUGUUCGGCGGUCCAAGUCGUUGCGGCGUUAAACCCUUUGAGAAGGUGCCCGGUGCC [#2 Exclusion - FMN B Attempt #1 (HarryS)]
measured target: K4 kissing-loop RNA reporter
apparent KD of K4 kissing-loop reporter (nM): 163

###

- System: MS2 coat protein
- test protocol: apparent KD of MS2 coat protein, switch ON state; designed switch direction (-1 OFF switch, 1 ON switch): -1; higher = weaker reporter binding
- protocol conditions: FMN input: 0 or 200 uM; Eterna round: R93 (includes R88 designs)
Binary call on apparent KD of MS2 coat protein: Condition met from 40 nM upward, Condition not met beneath that.

residue string: AAUAAAGGAGGAUAUACUAAAGAAAUGAAAAGAAAUAAAGAACAUGAGGAUCACCCAUGUAGAAGGCCUAAUAA [Yaqub-Har]
label: Condition not met

residue string: GGUUGGCGAGGAUAUACAUGAGGAUCACCCAUGUGAGAGAAAAAAGUGAGAAAGCAAAGUAGAAGGCGCUGACG [salish99-ex3-27]
label: Condition met

residue string: AAAACACAUGAGGAUCACCCAUGUGAGGAUAUGCUAGUGAAAAUAAAAAUAAAACAUAGCAGAAGGCACAAGGA [Amethyst 79]
label: Condition met

residue string: GAAUACCUAGGAUAUACAUGAGGAUCACCCAUGUCAGUAGACUGGGAAAAGUCUCUCAGUAGAAGGAGGACCAG [Anaran]
label: Condition met

residue string: AAACUACUAGGAUAUACAACGGUGUCCUAACUACUAAGAAAACAUGAGGAUCACCCAUGUAGAAGGAGUAGUGA [Lauslabe]
label: Condition not met

residue string: AAAACACAUGAGGAUCACCCAUGUGAGGAUAUGCAAAACCCAUAUAAAAAGGGAAAAAGCAGAAGGCACAAAAA [wbt round 1 mod 12]
label: Condition not met

residue string: AAAAAACAUGAGGAUCACCCAUGUGAGGAUAUCCAGAAGGGAAUAAAAUAACACGAAAGGAGAAGGCACAAAAA [Ex 1 May 36]
label: Condition not met

###

- Test system: K4 kissing-loop RNA reporter
- test protocol: apparent KD of K4 kissing-loop reporter; higher = weaker reporter binding
- protocol conditions: Eterna round: R107; input ligand: arginine 13.2 mM

residue string: GGCGGCCGCGCGCAAGCGCGGCCGGCCGAUACCAGCGCGACGGCGCGCCCUUGGCAGCGGCGCCGAGUGAUGUUCGGCCUGCCGU [#2 Same State - Theophylline A Attempt #15 (HarryS)]
measured target: K4 kissing-loop RNA reporter
apparent KD of K4 kissing-loop reporter / µM: 0.0811

residue string: UUGUUUAACUGAAGGAGCGGCAAUUGAUACGUAGAUAUAGUGAUGUUAUAUAAGAUAGAGAGCCAGGUAGGUCGCAGAGGUGUUU [ExArgB.R]
measured target: K4 kissing-loop RNA reporter
apparent KD of K4 kissing-loop reporter / µM: 0.227

residue string: CAGCAUCUGAGUGGUAGCCAUUGAGAGAUGCAGGAUAUCUGGAAACAGAGAAGGGCAGUGAGUGAUGUUCACGGCUGGCUUGGUU
measured target: K4 kissing-loop RNA reporter
apparent KD of K4 kissing-loop reporter / µM: 0.132

residue string: UUUGGAAGCGGUGUUGAUUAGGGAGCGGAAGGAGCGCCGAUUAUGGCAGGUAGGUCGCCGGAAUGUAGUGAUGUUGCAUAGAGGG [ExArgA.W]
measured target: K4 kissing-loop RNA reporter
apparent KD of K4 kissing-loop reporter / µM: 0.234

residue string: GUGGCGACGCAAGGAUAUGGGUGCUAGUGAUGUUAGCCUUUGCUCCAUGUCACGUGGUCUGCACACCCAGAAGGUGCGGGAAGAU [theeternabot_exclusion_KL_FMN_B_9]
measured target: K4 kissing-loop RNA reporter
apparent KD of K4 kissing-loop reporter / µM: 0.293

residue string: AUUUUUUUAUCAGGAUAUUAGUGAUGUUUGUUUUUGUUAGUGAUGUUGAUAUUUGUUUUAUGUAUUUAAGAAGGGAUUGAGAUGU [sfsmullin]
measured target: K4 kissing-loop RNA reporter
apparent KD of K4 kissing-loop reporter / µM: 0.0155

residue string: AAUAACUUGCAGUGAUGUUGCAAGAAAGCUCAGGAUAUCAGGAAACUGAGAAGGGAGCAUCCUGAGCAAACAUCACAACUUAGGA [[K1]-[K2]-[F1]-[F2]-[F]'-[K]'-[F]''_Design2]
measured target: K4 kissing-loop RNA reporter
apparent KD of K4 kissing-loop reporter / µM: 0.295

residue string: UAGGGCAUCGCAGGAUAUCCUGCUUAACGUUGGAUUCCAGUGAUGUUGGAAAGCCGGCCUAGGGUAGGAGAAGGGCGGACUUGAA [Riteteve]
measured target: K4 kissing-loop RNA reporter
apparent KD of K4 kissing-loop reporter / µM: 0.167

residue string: UGGAGUUGACGAAAAGUCAACUCCCGAGAAGGAGCGGACGAAAGUCCAGGUAGGUCGCUCGCUACCAGUGAUGUUGGUACUCAAA
measured target: K4 kissing-loop RNA reporter
apparent KD of K4 kissing-loop reporter / µM: 0.182

residue string: GAACGAGUGAUGUUCGUUGGCAUGCAUUCCGAGGAUAUGGGAUUAGCCAGAAGGCGGAAUCAGUCUUCGAGUGAUGUUCGAAGAU [Same State FMN A GF 12]
measured target: K4 kissing-loop RNA reporter
apparent KD of K4 kissing-loop reporter / µM: 0.104

residue string: UGUGGAGAAUAUGAUACCAGCAGUGAGAGAGAGGAAGUAUAGUGAUGUUAUAUGAGAGAAUGCCCUUGGCAGCAUAAGAAGAAGG [SSTheophylB.D]
measured target: K4 kissing-loop RNA reporter
apparent KD of K4 kissing-loop reporter / µM: 0.155

residue string: UAAGAAUAAGUAGCAGUGAUGUUGCUACUACGAGGACCGGUACGGCCGCCACUCGAAUACGAGUGGAAGUAGCAACUACCACUCA [(H1)-(H2)-(Trp1)-(Trp2)-(T)'-(H)'-(T)''_Design7]
measured target: K4 kissing-loop RNA reporter;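 note: bound reporter read as fluorescence of individual clusters on recovered sequencing chips by microscopy, with normalized cluster intensities fitted with a binding model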
apparent KD of K4 kissing-loop reporter / µM: 0.0962
